tested on: Human immunodeficiency virus 2; assay: Antiviral activity against HIV 2 subtype H expressing 10I-40P-41Y-60H-63N-70T-73G-89L-92E protease gene sequence from HIV2 infected patient plasma and PBMC obtained before compound treatment measured after 13 months; type: functional, organism-based; conditions: Human immunodeficiency virus 2, subtype H
Provide the reported log10(IC90) of each item.
Response schema: value (number) is log10 of IC90 in units of nM.

If you can, please state the reported log10(IC90) value of Cc1cccc(C)c1OCC(=O)N[C@@H](Cc1ccccc1)[C@@H](O)C[C@H](Cc1ccccc1)NC(=O)[C@H](C(C)C)N1CCCNC1=O .
2.70

If you can, please state the reported log10(IC90) value of CC(C)(C)NC(=O)[C@@H]1C[C@@H]2CCCC[C@@H]2CN1C[C@@H](O)[C@H](Cc1ccccc1)NC(=O)[C@H](CC(N)=O)NC(=O)c1ccc2ccccc2n1 .
2.48

If you can, please state the reported log10(IC90) value of COC(=O)N[C@H](C(=O)N[C@@H](Cc1ccccc1)[C@@H](O)CN(Cc1ccc(-c2ccccn2)cc1)NC(=O)[C@@H](NC(=O)OC)C(C)(C)C)C(C)(C)C .
2.70

If you can, please state the reported log10(IC90) value of CC(C)CN(C[C@@H](O)[C@H](Cc1ccccc1)NC(=O)O[C@H]1CO[C@H]2OCC[C@H]21)S(=O)(=O)c1ccc(N)cc1 .
1.60

If you can, please state the reported log10(IC90) value of Cc1c(O)cccc1C(=O)N[C@@H](CSc1ccccc1)[C@H](O)CN1C[C@H]2CCCC[C@H]2C[C@H]1C(=O)NC(C)(C)C .
2.48

If you can, please state the reported log10(IC90) value of CCC[C@@]1(CCc2ccccc2)CC(O)=C([C@H](CC)c2cccc(NS(=O)(=O)c3ccc(C(F)(F)F)cn3)c2)C(=O)O1 .
2.90

If you can, please state the reported log10(IC90) value of CC(C)(C)NC(=O)[C@@H]1CN(Cc2cccnc2)CCN1C[C@@H](O)C[C@@H](Cc1ccccc1)C(=O)N[C@H]1c2ccccc2C[C@H]1O .
2.70

If you can, please state the reported log10(IC90) value of CC(C)CN(C[C@@H](O)[C@H](Cc1ccccc1)NC(=O)O[C@H]1CCOC1)S(=O)(=O)c1ccc(N)cc1 .
3.43

---

tested on: Human immunodeficiency virus 2; test: Antiviral activity against HIV 2 subtype A clinical isolate expressing 14H-60K/N-65E protease gene sequence from HIV2 infected patient plasma and PBMC obtained before compound treatment measured after 13 months; format: functional, organism-based; conditions: Human immunodeficiency virus 2, subtype A
Provide the reported IC50 of each item.
Please give the number followed by its unit.

If you can, please state the reported IC50 value of COC(=O)N[C@H](C(=O)N[C@@H](Cc1ccccc1)[C@@H](O)CN(Cc1ccc(-c2ccccn2)cc1)NC(=O)[C@@H](NC(=O)OC)C(C)(C)C)C(C)(C)C .
40 nM

If you can, please state the reported IC50 value of CC(C)CN(C[C@@H](O)[C@H](Cc1ccccc1)NC(=O)O[C@H]1CCOC1)S(=O)(=O)c1ccc(N)cc1 .
900 nM

If you can, please state the reported IC50 value of Cc1cccc(C)c1OCC(=O)N[C@@H](Cc1ccccc1)[C@@H](O)C[C@H](Cc1ccccc1)NC(=O)[C@H](C(C)C)N1CCCNC1=O .
40 nM

If you can, please state the reported IC50 value of Cc1c(O)cccc1C(=O)N[C@@H](CSc1ccccc1)[C@H](O)CN1C[C@H]2CCCC[C@H]2C[C@H]1C(=O)NC(C)(C)C .
60 nM

If you can, please state the reported IC50 value of CC(C)(C)NC(=O)[C@@H]1CN(Cc2cccnc2)CCN1C[C@@H](O)C[C@@H](Cc1ccccc1)C(=O)N[C@H]1c2ccccc2C[C@H]1O .
30 nM

If you can, please state the reported IC50 value of CC(C)CN(C[C@@H](O)[C@H](Cc1ccccc1)NC(=O)O[C@H]1CO[C@H]2OCC[C@H]21)S(=O)(=O)c1ccc(N)cc1 .
10 nM

If you can, please state the reported IC50 value of CC(C)(C)NC(=O)[C@@H]1C[C@@H]2CCCC[C@@H]2CN1C[C@@H](O)[C@H](Cc1ccccc1)NC(=O)[C@H](CC(N)=O)NC(=O)c1ccc2ccccc2n1 .
5 nM

If you can, please state the reported IC50 value of CCC[C@@]1(CCc2ccccc2)CC(O)=C([C@H](CC)c2cccc(NS(=O)(=O)c3ccc(C(F)(F)F)cn3)c2)C(=O)O1 .
300 nM

Where do the numbers come from? From ChEMBL document CHEMBL1255304.
